Target sequence: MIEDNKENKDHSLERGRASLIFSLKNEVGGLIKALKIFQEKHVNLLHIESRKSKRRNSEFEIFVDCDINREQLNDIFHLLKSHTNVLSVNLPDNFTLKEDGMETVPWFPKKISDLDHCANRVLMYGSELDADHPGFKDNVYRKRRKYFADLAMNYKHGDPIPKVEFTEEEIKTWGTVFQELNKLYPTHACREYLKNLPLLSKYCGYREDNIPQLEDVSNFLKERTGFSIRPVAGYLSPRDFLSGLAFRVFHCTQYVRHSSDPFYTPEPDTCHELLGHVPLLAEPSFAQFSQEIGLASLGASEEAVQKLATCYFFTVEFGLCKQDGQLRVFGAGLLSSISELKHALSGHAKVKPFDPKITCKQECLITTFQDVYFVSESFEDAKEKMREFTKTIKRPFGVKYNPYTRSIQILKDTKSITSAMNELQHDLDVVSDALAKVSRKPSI
RECORDED_ENDPOINT: pIC50
Numbers only, as −log10 of the molar value.

For every item in the list below, what is its measured pIC50?
1. CN1CCc2cc(-c3ccc([C@@H](Oc4cc(N5CCC6(CC5)CN[C@H](C(=O)O)C6)nc(N)n4)C(F)(F)F)cc3)ccc2C1=O
2. CC(C)(C)c1cccc(-c2cc(Cl)ccc2[C@@H](Oc2cc(N3CCC4(CC3)CN[C@H](C(=O)O)C4)nc(N)n2)C(F)(F)F)c1

Key:
7.41
7.64

For every item in the list below, what is its measured pIC50?
1. Cc1ccn(-c2cc(-c3ccc(Cl)c(Cl)c3)ccc2[C@@H](Oc2cc(N3CCC4(CC3)CN[C@H](C(=O)O)C4)nc(N)n2)C(F)(F)F)n1
2. CN(C)S(=O)(=O)c1cccc(-c2cc(Cl)ccc2[C@@H](Oc2cc(N3CCC4(CC3)CN[C@H](C(=O)O)C4)nc(N)n2)C(F)(F)F)c1
3. Nc1nc(O[C@H](c2ccc(Cl)cc2-c2ccccc2)C(F)(F)F)cc(N2CCC3(CC2)CN[C@H](C(=O)O)C3)n1
4. Nc1nc(O[C@H](c2ccc(Cl)cc2-c2ccc(S(N)(=O)=O)cc2)C(F)(F)F)cc(N2CCC3(CC2)CN[C@H](C(=O)O)C3)n1
5. Cc1cccc(-c2cc(Cl)ccc2[C@@H](Oc2cc(N3CCC4(CC3)CN[C@H](C(=O)O)C4)nc(N)n2)C(F)(F)F)n1

Key:
[7.66, 7.28, 7.48, 5.95, 7.14]

---

# ASSAY_NOTES: Clearance in rat at 1 mg/kg, iv
# Assay type: ADME, organism-based
# CONDITION_DETAILS: in vivo
RECORDED_ENDPOINT: clearance (mL/min/kg)
One number for each entry, in mL/min/kg.

Measured clearance, CCOC(=O)[C@@H]1CC2(CCN(c3cc(O[C@H](c4ccc(Cl)cc4-c4ccccc4)C(F)(F)F)nc(N)n3)CC2)CN1 [RODATRISTAT ETHYL] : 106

---

# ASSAY_NOTES: Volume of distribution at steady state in rat at 1 mg/kg, iv
# Type: ADME, organism-based
# CONDITION_DETAILS: in vivo, read-out: Vdss
RECORDED_ENDPOINT: Vd (L/kg)
One number for each entry, in L/kg.

Measured Vd, CCOC(=O)[C@@H]1CC2(CCN(c3cc(O[C@H](c4ccc(Cl)cc4-c4ccccc4)C(F)(F)F)nc(N)n3)CC2)CN1 : 12.7
